- procedure summary: Log P by HPLC on reversed phase columns, method [a] (EEC directive 79/831 Annex V.A8)
- Format: physicochemical
- test conditions: log P determined according to method [a] (HPLC on reversed phase columns)
experimental endpoint: logP
One number for each entry.

// worked examples, logP included
[[record]]
smiles_notation = "FC(F)c1nnc(-c2cnc(-c3cccnc3)nc2)o1"
experimental_endpoint = "logP"
observed_measurement = 2.03

[[record]]
smiles_notation = "FC(F)c1nnc(-c2ccc(N3CCCCC3)nc2)o1"
experimental_endpoint = "logP"
observed_measurement = 2.72

[[record]]
smiles_notation = "COC(=O)c1ccc(-c2nnc(C(F)F)o2)cc1"
experimental_endpoint = "logP"
observed_measurement = 2.35

[[record]]
smiles_notation = "CC(=O)Nc1ccc(-c2nnc(C(F)F)o2)cn1"
experimental_endpoint = "logP"
observed_measurement = 1.32

[[record]]
smiles_notation = "O=C(O)c1ccc(-c2nnc(C(F)(F)F)s2)cc1"
experimental_endpoint = "logP"
observed_measurement = 2.41


For each of the compounds below, note its logP.
1. O=C(Nc1ccccc1)Nc1ccc(-c2nnc(C(F)F)o2)cn1
2. O=C(Nc1ccc(-c2nnc(C(F)F)o2)cc1)C(F)F
3. FC(F)c1nnc(-c2ccc(-n3cccn3)nc2)o1

RESULT:
2.57
2.01
2.31

For each of the compounds below, note its logP.
1. Cc1ccccc1Nc1ncc(-c2nnc(C(F)F)o2)cn1
2. O=C(Nc1ccc(F)cc1F)c1ccc(-c2nnc(C(F)(F)F)o2)cc1

RESULT:
[2.51, 3.12]
